System tested: HIV-1 JR-CSF Env Q422A (HIV-1 (isolate JR-CSF)) (UniProt P20871)
Protocol details: cell-based or functional assay
Measurement kind: Fold IC50 increase relative to wild-type (fold)
Report the value in fold with no unit label.

Request: What does the record list as Fold IC50 increase relative to wild-type for PGT-123 (antibody, V domains shown) VH: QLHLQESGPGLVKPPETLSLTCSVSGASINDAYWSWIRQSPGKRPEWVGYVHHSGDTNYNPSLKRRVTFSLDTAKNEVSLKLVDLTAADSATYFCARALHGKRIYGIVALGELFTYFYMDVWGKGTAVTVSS VL: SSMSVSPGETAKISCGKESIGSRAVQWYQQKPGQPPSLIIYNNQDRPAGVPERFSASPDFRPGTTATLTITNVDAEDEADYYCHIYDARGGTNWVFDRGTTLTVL ?
Result: 0.8

Request: PGT-131 (antibody, V domains shown) VH: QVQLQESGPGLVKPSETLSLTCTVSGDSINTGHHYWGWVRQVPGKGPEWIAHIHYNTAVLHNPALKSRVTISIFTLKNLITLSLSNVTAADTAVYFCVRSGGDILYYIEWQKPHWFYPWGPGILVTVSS VL: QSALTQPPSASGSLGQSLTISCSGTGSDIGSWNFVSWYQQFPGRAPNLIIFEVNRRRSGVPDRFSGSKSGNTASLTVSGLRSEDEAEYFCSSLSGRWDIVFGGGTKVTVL , same question.
Result: 1.9

Request: PGT-128 (antibody, V domains shown) VH: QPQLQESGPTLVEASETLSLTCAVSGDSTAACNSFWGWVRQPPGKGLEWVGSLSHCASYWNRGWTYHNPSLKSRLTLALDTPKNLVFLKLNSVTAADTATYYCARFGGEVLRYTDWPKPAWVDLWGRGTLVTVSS VL: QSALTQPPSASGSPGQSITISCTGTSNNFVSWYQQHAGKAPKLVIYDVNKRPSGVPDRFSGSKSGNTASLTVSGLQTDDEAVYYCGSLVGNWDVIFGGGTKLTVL , same question.
Result: 0.2

Request: PGT-130 (antibody, V domains shown) VH: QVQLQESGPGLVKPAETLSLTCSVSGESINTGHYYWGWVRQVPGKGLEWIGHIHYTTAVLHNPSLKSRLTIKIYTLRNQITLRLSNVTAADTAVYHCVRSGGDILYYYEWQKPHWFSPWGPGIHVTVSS VL: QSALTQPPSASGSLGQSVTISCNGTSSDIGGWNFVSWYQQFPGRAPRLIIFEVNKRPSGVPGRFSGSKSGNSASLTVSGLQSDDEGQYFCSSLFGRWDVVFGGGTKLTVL , same question.
Result: 1

Request: PGT-125 (antibody, V domains shown) VH: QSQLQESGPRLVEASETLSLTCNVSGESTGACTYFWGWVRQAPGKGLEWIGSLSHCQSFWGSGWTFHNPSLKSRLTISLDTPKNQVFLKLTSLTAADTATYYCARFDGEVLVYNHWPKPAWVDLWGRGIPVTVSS VL: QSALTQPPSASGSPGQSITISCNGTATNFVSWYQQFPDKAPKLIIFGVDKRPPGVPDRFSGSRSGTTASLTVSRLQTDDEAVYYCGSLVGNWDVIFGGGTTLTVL , same question.
Result: 1.2
